Hey, just so you know, these numbers are from the supplement of paper PMC11208160.

methodDescription: recombinant barcode read abundance after kanamycin selection (control-corrected) (log10(CPM+1)); higher = more efficient recombination; sequences stand for … in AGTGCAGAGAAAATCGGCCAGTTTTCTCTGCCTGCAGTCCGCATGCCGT…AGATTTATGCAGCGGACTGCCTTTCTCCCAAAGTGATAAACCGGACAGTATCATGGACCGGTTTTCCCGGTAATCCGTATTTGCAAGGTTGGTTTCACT; site = the 11-nt target
propertyName: recombinant barcode read abundance (log10)
Answers are plain numbers.

Worked set:
orderedResidues: AGCCGCCCTTGGGTTCTAACCTGTTGCAT (site CGCCGCCCTAG)
valueReported: 0.119

orderedResidues: CACAATACTTGGGTTCTAACCTGTTGCCT (site CACAATACTAG)
valueReported: 1.03

orderedResidues: CGTGCGACTTGGGTTCTAACCTGTTGCAT (site CGTGCGACTAT)
valueReported: 0.109

Param item = GATGAGACTTGGGTTCTAACCTGTTGCCG (site GCTGAGACTCG) ; retrieve measured recombinant barcode read abundance (log10). 0.223

###

methodDescription: recombinant UMI read abundance after kanamycin selection (control-corrected) (log10(CPM+1)); higher = more efficient recombination; extreme values may be limits of the assay; sequences stand for … in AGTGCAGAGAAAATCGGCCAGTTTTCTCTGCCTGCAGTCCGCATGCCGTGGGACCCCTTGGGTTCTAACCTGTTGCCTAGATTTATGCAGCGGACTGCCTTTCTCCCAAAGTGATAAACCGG…AGGTTGGTTTCACT; site = the 11-nt donor
propertyName: recombinant UMI read abundance (log10)
Give bare numbers.

orderedResidues: GCGAAGACATGGACCGGTTTTCCCGGTAATCCGTATTTGCT (site GCGAAGACTAG)
recombinant UMI read abundance (log10): 1.92

orderedResidues: GAAGGGTCATGGACCGGTTTTCCCGGTAATCCGTATTTGTT (site GAAGGGTCTAA)
recombinant UMI read abundance (log10): 2.74

orderedResidues: CCTTAGCCATGGACCGGTTTTCCCGGTAATCCGTATTTGAA (site CCTTAGCCTTT)
recombinant UMI read abundance (log10): 0

Field: recombinant UMI read abundance (log10). Fill in for each record below.
1. AGGATTACATGGACCGGTTTTCCCGGTAATCCGTATTTGAC (site AGGACTACTGT)
2. CCCTATTCATGGACCGGTTTTCCCGGTAATCCGTATTTGCT (site CCCTATTCTAG)

1. 0.662
2. 1.7

###

methodDescription: recombinant UMI read abundance after kanamycin selection (control-corrected) (log10(CPM+1)); higher = more efficient recombination; extreme values may be limits of the assay; sequences stand for … in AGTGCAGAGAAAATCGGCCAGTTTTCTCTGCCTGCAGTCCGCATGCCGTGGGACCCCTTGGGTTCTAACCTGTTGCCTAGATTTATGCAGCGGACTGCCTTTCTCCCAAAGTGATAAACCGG…AGGTTGGTTTCACT; site = the 11-nt donor
Kindly supply the reported recombinant UMI read abundance (log10) values for the records listed here.
Give bare numbers.

Worked set:
orderedResidues: CACTCCACATGGACCGGTTTTCCCGGTAATCCGTATTTGCC (site CACTCCACTGG)
propertyName: recombinant UMI read abundance (log10)
valueReported: 2.65
--
orderedResidues: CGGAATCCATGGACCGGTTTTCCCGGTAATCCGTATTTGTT (site CGGCATCCTAC)
propertyName: recombinant UMI read abundance (log10)
valueReported: 0.011
--
orderedResidues: ACATCTACATGGACCGGTTTTCCCGGTAATCCGTATTTGTG (site ACCTCTACTCA)
propertyName: recombinant UMI read abundance (log10)
valueReported: 0.0111

We now examine a further sequence.
Param item = CCCACCGCATGGACCGGTTTTCCCGGTAATCCGTATTTGCC (site CCCACCGCTGG) ; retrieve measured recombinant UMI read abundance (log10). 0.815

###

methodDescription: recombinant barcode read abundance after kanamycin selection (control-corrected) (log10(CPM+1)); higher = more efficient recombination; sequences stand for … in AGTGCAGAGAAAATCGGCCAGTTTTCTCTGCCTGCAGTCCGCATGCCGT…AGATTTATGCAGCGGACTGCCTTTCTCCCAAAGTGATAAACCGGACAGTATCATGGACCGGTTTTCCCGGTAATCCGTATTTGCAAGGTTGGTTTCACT; site = the 11-nt target
Records here are stratified by recombinant barcode read abundance (log10); strata: bottom range (below 0.1), center range (0.1 to below 0.3), top range (0.3 or more)

orderedResidues: CGTCATCCTTGGGTTCTAACCTGTTGCCT (site CGTCAGCCTAG)
assignedClass: center range

Returns: class label. Input: CGTCGACCTTGGGTTCTAACCTGTTGCCT (site AGTCGACCTAG) bottom range

Returns: class label. Input: TAGTTAGCTTGGGTTCTAACCTGTTGCCA (site TAGTTAGCTTG) top range

Returns: class label. Input: TAACTAGCTTGGGTTCTAACCTGTTGCTA (site TAACTAGCTTA) center range

Returns: class label. Input: CGCGAATCTTGGGTTCTAACCTGTTGCTT (site CGCGAATCTAA) bottom range

Returns: class label. Input: CAATGGTCTTGGGTTCTAACCTGTTGCAT (site CAATGGTCTAA) top range

Returns: class label. Input: ACTTGACCTTGGGTTCTAACCTGTTGCAG (site ATTTGACCTCG) bottom range

Returns: class label. Input: GACATCCCTTGGGTTCTAACCTGTTGCCT (site GACATCTCTAG) center range

Returns: class label. Input: GTCAAGCCTTGGGTTCTAACCTGTTGCTA (site GTCAAGCCTTA) top range

Returns: class label. Input: AGAAGTCCTTGGGTTCTAACCTGTTGCGG (site AGAAGTCCTCC) top range

Returns: class label. Input: CGGAACCCTTGGGTTCTAACCTGTTGCCG (site CGGAACCCTCG) top range

Returns: class label. Input: TGAGTGGCTTGGGTTCTAACCTGTTGCCT (site TGAGAGGCTAG) center range

Returns: class label. Input: CTAGACTCTTGGGTTCTAACCTGTTGCTA (site CTAGACTCTAA) top range

Returns: class label. Input: AGCATTGCTTGGGTTCTAACCTGTTGCCT (site AGCATTGCTAG) center range

Returns: class label. Input: TCCAACACTTGGGTTCTAACCTGTTGCCG (site TCCAATACTCG) center range

Returns: class label. Input: GATTTCTCTTGGGTTCTAACCTGTTGCCT (site GATTTCTCTAG) center range

Returns: class label. Input: AACCCTACTTGGGTTCTAACCTGTTGCCT (site CACCCTACTAG) top range

Returns: class label. Input: CTGCAAGCTTGGGTTCTAACCTGTTGCCT (site CTCCAAGCTAG) center range

Returns: class label. Input: GTTTCACCTTGGGTTCTAACCTGTTGCCT (site GTTACACCTAG) center range

###

methodDescription: recombinant barcode read abundance after kanamycin selection (control-corrected) (log10(CPM+1)); higher = more efficient recombination; sequences stand for … in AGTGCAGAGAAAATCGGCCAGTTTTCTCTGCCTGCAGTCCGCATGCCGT…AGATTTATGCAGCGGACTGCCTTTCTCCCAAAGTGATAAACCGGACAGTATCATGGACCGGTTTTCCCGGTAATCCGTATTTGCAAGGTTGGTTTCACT; site = the 11-nt target
propertyName: recombinant barcode read abundance (log10)
Answers are plain numbers.

Field: recombinant barcode read abundance (log10). Fill in for each record below.
1. TGCGCAACTTGGGTTCTAACCTGTTGCCT (site TGCGCAACTAG)
2. AGACTAACTTGGGTTCTAACCTGTTGCCT (site AAACTAACTAG)
3. CTAATAGCTTGGGTTCTAACCTGTTGCCA (site CTAATAGCTTG)
4. GATTTCTCTTGGGTTCTAACCTGTTGCCT (site TATTTCTCTAG)

[0.0344, 0.124, 0.262, 0.124]

###

methodDescription: recombinant UMI read abundance after kanamycin selection (control-corrected) (log10(CPM+1)); higher = more efficient recombination; extreme values may be limits of the assay; sequences stand for … in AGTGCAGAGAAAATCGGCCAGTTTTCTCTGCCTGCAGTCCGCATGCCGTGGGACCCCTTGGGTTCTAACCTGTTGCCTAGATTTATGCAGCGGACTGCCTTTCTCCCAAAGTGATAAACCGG…AGGTTGGTTTCACT; site = the 11-nt donor
Classify by measured recombinant UMI read abundance (log10): yes if it is equal to or exceeds 0.007, no if it is smaller.

Some solved cases for reference:
orderedResidues: CCCCACACATGGACCGGTTTTCCCGGTAATCCGTATTTGTA (site CCCAACACTTA)
assignedClass: no
--
orderedResidues: TGGACATCATGGACCGGTTTTCCCGGTAATCCGTATTTGCT (site GGGACATCTAG)
assignedClass: yes
--
orderedResidues: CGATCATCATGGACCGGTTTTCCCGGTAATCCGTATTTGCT (site CGATCAACTAG)
assignedClass: no
--
orderedResidues: AGGGTGCCATGGACCGGTTTTCCCGGTAATCCGTATTTGGG (site AGGGTGCCTCC)
assignedClass: yes
--
orderedResidues: AGTGTAACATGGACCGGTTTTCCCGGTAATCCGTATTTGCT (site AGTGTAACTAG)
assignedClass: yes
--
orderedResidues: GGGGAGGCATGGACCGGTTTTCCCGGTAATCCGTATTTGTG (site GAGGAGGCTCA)
assignedClass: no
--
orderedResidues: CCGTTAGCATGGACCGGTTTTCCCGGTAATCCGTATTTGCG (site CCGTTAGCTCC)
assignedClass: no
--
orderedResidues: CGTTAGACATGGACCGGTTTTCCCGGTAATCCGTATTTGAG (site CGTTAGACTCG)
assignedClass: no
--
orderedResidues: ACCTGGACATGGACCGGTTTTCCCGGTAATCCGTATTTGAG (site ACCTGGACTCT)
assignedClass: yes
--
orderedResidues: AAGGACGCATGGACCGGTTTTCCCGGTAATCCGTATTTGCC (site AAGGACGCTGG)
assignedClass: yes

Dear colleague, could you confirm whether CTAGTGTCATGGACCGGTTTTCCCGGTAATCCGTATTTGAT (site CTAGTATCTGT) has recombinant UMI read abundance (log10) at or above 0.007? yes

Dear colleague, could you confirm whether CGATTATCATGGACCGGTTTTCCCGGTAATCCGTATTTGCT (site CGATTATCTAG) has recombinant UMI read abundance (log10) at or above 0.007? yes

Dear colleague, could you confirm whether GGTCACACATGGACCGGTTTTCCCGGTAATCCGTATTTGTC (site GGTCACACTGA) has recombinant UMI read abundance (log10) at or above 0.007? yes

Dear colleague, could you confirm whether TGTACGTCATGGACCGGTTTTCCCGGTAATCCGTATTTGTT (site GGTACGTCTAA) has recombinant UMI read abundance (log10) at or above 0.007? yes
